Biological target: Interstitial collagenase (Homo sapiens, UniProt P03956)
Sequence (P03956 whole entry): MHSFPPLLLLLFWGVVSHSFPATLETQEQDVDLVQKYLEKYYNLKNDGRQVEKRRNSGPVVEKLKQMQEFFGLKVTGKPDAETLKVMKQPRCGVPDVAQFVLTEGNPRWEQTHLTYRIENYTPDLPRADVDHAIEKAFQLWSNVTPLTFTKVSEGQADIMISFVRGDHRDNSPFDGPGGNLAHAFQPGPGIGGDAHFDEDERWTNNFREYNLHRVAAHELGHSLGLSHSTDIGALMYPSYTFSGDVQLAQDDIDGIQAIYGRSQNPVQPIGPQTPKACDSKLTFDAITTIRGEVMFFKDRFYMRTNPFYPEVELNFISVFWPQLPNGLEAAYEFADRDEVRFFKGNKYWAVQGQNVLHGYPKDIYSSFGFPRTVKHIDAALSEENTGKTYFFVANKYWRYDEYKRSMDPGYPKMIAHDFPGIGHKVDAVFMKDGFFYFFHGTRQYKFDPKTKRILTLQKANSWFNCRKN
quantity measured: pIC50
Just the number, please; pIC50 means minus log10 of the concentration in mol/L.

Solved entries (count: 3):
>  <compound>
NC(=NCCC[C@H](NC(=O)[C@H](CC1CCCCC1)[C@H](C1CC1)N(O)C=O)C(=O)Nc1nccs1)N[N+](=O)[O-]

>  <quantity measured>
pIC50

>  <numeric value>
6.84

$$$$
>  <compound>
CC(C)C[C@@H](C(=O)N[C@H](C(=O)Nc1nccs1)[C@H](C)CC/N=C(/N)N[N+](=O)[O-])[C@H](C)N(O)C=O

>  <quantity measured>
pIC50

>  <numeric value>
7.42

$$$$
>  <compound>
CCC[C@@H]([C@@H](CC1CCC(C)CC1)C(=O)N[C@@H](CCC/N=C(/N)N[N+](=O)[O-])C(=O)Nc1nccs1)N(O)C=O (stereo not given in full)

>  <quantity measured>
pIC50

>  <numeric value>
6.73

$$$$

Print Interstitial collagenase (Homo sapiens, UniProt P03956) pIC50 for CCC[C@@H]([C@@H](CC(C)C)C(=O)N[C@@H](CCC/N=C(/N)N[N+](=O)[O-])C(=O)Nc1nccs1)N(O)C=O .
7.47

* * *

Entries and their pIC50 values follow.
Target: Disintegrin and metalloproteinase domain-containing protein 17 (Homo sapiens, UniProt P78536)
Sequence (P78536 whole entry, the tested form may be a part): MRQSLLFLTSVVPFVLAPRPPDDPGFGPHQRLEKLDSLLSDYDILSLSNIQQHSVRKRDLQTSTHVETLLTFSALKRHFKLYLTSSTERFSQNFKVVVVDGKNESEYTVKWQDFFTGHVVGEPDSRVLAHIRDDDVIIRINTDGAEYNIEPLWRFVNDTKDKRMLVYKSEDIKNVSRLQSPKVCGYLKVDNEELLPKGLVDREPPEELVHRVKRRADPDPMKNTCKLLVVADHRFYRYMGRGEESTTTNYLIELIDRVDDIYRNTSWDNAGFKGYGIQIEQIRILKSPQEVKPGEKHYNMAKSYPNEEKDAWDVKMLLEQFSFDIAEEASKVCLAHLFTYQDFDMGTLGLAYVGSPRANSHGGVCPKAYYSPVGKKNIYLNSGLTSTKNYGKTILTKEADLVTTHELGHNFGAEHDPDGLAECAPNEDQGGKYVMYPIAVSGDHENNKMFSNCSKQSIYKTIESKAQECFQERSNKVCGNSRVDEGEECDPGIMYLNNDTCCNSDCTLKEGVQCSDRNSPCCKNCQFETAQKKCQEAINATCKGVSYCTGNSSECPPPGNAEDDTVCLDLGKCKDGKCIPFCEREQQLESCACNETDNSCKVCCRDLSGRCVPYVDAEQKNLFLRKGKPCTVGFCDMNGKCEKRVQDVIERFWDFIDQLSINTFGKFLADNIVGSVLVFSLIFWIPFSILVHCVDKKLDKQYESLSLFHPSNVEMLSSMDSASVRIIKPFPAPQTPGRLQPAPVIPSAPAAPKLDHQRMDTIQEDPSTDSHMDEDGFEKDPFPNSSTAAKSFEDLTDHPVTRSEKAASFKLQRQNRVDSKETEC
Just the number, please; pIC50 means minus log10 of the concentration in mol/L.

Hello, please tell me recorded pIC50 for this one: CC(C)C[C@@H](C(=O)N[C@H](C(=O)Nc1nccs1)[C@H](C)CC/N=C(/N)NS(C)(=O)=O)[C@H](C(C)C)N(O)C=O
7.46

Hello, please tell me recorded pIC50 for this one: CC1CCC(C[C@@H](C(=O)N[C@@H](CCCN=C(N)NS(=O)(=O)c2ccccn2)C(=O)Nc2nccs2)[C@H](C(C)C)N(O)C=O)CC1 (some centres undefined)
7.80

Hello, please tell me recorded pIC50 for this one: CCC[C@@H]([C@@H](CC1CCC(C)CC1)C(=O)N[C@@H](CCC/N=C(/N)N[N+](=O)[O-])C(=O)Nc1nccs1)N(O)C=O (some centres undefined)
8.05

Hello, please tell me recorded pIC50 for this one: CC(C)C[C@@H](C(=O)N[C@H](C(=O)Nc1nccs1)[C@H](C)CC/N=C(/N)NS(C)(=O)=O)[C@H](CCC(F)(F)F)N(O)C=O
8.10
